Origin of the recorded values: patent US20090170867A1

target: human TRPV1 (Homo sapiens, UniProt Q8NER1); construct: using primers designed surrounding the complete hTRPV1 open reading frame; expressed in transfected cells; host or cells: CHO-K1 cells stably transfected with pcDNA3.1(-)-hVR1 plasmid; experiment: pH-based assay, Protocol 2 (TRPV1/CHO cells, Fura-2 AM, FDSS-3000, pH 5.0-5.1); assay type: cell-based; settings: H2SO4 agonist, mean ± SEM, number of trials in parentheses, read-out: TRPV1 IC50 Potency, Human pH CHO (hpH-CHO)
Sequence (Q8NER1 whole entry): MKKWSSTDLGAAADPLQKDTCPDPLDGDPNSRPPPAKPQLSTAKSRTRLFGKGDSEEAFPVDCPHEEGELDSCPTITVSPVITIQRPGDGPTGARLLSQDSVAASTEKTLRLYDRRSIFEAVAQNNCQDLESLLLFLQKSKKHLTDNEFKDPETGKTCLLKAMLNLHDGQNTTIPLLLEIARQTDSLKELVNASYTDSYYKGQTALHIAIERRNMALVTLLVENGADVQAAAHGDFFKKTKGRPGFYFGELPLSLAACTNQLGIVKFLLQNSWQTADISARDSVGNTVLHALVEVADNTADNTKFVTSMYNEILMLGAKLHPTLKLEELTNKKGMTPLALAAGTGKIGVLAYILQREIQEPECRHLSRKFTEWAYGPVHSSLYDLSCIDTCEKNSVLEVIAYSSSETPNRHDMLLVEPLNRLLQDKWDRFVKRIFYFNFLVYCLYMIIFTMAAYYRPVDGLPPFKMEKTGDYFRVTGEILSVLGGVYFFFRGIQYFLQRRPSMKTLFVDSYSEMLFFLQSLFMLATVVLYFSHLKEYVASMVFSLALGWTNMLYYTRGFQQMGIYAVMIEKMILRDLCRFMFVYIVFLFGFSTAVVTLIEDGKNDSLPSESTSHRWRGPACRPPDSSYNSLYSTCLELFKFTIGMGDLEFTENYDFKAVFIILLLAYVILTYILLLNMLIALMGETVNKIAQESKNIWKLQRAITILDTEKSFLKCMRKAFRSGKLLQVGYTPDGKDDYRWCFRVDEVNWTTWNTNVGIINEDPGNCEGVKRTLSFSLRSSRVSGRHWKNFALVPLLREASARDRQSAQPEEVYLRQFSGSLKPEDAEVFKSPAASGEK
ASSAY READOUT: IC50 (nM)

O=C(Nc1ccc(C(F)(F)F)cc1)N1CCC(F)(c2ncc([C@@H](O)CO)cc2Cl)CC1 [Compound B1] | 7.4

(1) COCc1cnc(C2=CCN(C(=O)Nc3ccc(C(F)(F)F)cc3)CC2)c(Cl)c1 [Compound F3]
(2) O=C(Nc1nc2ccc(Cl)cc2s1)N1CCC(F)(c2ncc([C@@H](O)CO)cc2F)CC1 [Compound Z5]
(3) O=C(Nc1ccc(C(F)(F)F)cn1)N1CC=C(c2ncc([C@@H](O)CO)cc2Cl)CC1 [Compound N3]
(4) O=C(Nc1nc2ccc(F)cc2s1)N1CCN(c2ncc([C@H](O)CO)cc2Cl)CC1 [Compound V6]
Asked: With regard to IC50, arrange the entries in ascending order, please. Give the labels in the order requested.
Given back: 4, 2, 3, 1

(A) CC(C)Oc1ccc(NC(=O)N2CC=C(c3ncc(CO)cc3Cl)CC2)cc1C(F)(F)F [Compound I2]
(B) O=C(Nc1ccc(C(F)(F)F)cc1)N1CCN(c2ncc([C@H](O)CO)cc2Cl)CC1 [Compound M6]
(C) O=C(Nc1ccc(C(F)(F)F)cc1)N1CC=C(c2ncc(CO)cc2Cl)CC1 [Compound J2]
Asked: With regard to IC50, arrange the entries in ascending order, please. Give the labels in the order requested.
Given back: B, A, C
(B: 3.5 nM, A: 18 nM, C: 41.7 nM)

(A) O=C(Nc1ccc(C(F)(F)F)cn1)N1CCC(F)(c2ncc([C@H](O)CO)cc2Cl)CC1 [Compound G1]
(B) O=C(Nc1ccc(OCC2CC2)c(C(F)(F)F)c1)N1CC=C(c2ncc(CO)cc2Cl)CC1 [Compound Y2]
Asked: Which shows the larger IC50 value: A or B ? Reply with the label of the item you choose.
Given back: B
(B: 59.9 nM, A: 16.4 nM)
